Assay: Selectivity index, ratio of IC50 for phytohemagglutininin-activated-PBMC to IC50 for Leishmania amazonensis MHOM/BR/1987/BA promastigotes
Type: functional
Short version: Ratio IC50 at least 5 is YES, less is NO.

Field: example entries. Status: answers known.
Smiles Entry	Cat
c1ccc2c(c1)nc(CCc1ccc3c(c1)OCO3)c1cccn12	YES
CCCCCc1nc2ccccc2n2cccc12	NO
C/C=C\c1nc2ccccc2n2cccc12	NO

Task: Does Ratio IC50 meet or surpass 5 for C/C=C/c1nc2cc(OC)ccc2n2cccc12 ?
Result: NO

Task: Does Ratio IC50 meet or surpass 5 for CCC/C=C/c1nc2ccc(OC)cc2n2cccc12 ?
Result: YES

Task: Does Ratio IC50 meet or surpass 5 for C/C=C/c1ccc2ccccc2n1 ?
Result: YES

Task: Does Ratio IC50 meet or surpass 5 for C/C=C/c1nc2ccccc2n2cccc12 ?
Result: YES

Task: Does Ratio IC50 meet or surpass 5 for CCCCC#Cc1nc2cc(OC)ccc2n2cccc12 ?
Result: NO

Task: Does Ratio IC50 meet or surpass 5 for C[C@@H]1[C@H](O)[C@@H](C)/C=C/C=C/C=C/C=C/C=C/C=C/C=C/[C@H](O[C@@H]2O[C@H](C)[C@@H](O)[C@H](N)[C@@H]2O)C[C@@H]2O[C@](O)(C[C@@H](O)C[C@@H](O)[C@H](O)CC[C@@H](O)C[C@@H](O)CC(=O)O[C@H]1C)C[C@H](O)[C@H]2C(=O)O ?
Result: YES
